- system: Homeobox protein Hox-A13 (Mus musculus) (UniProt Q62424)
- Sequence (Q62424 whole entry, looked up): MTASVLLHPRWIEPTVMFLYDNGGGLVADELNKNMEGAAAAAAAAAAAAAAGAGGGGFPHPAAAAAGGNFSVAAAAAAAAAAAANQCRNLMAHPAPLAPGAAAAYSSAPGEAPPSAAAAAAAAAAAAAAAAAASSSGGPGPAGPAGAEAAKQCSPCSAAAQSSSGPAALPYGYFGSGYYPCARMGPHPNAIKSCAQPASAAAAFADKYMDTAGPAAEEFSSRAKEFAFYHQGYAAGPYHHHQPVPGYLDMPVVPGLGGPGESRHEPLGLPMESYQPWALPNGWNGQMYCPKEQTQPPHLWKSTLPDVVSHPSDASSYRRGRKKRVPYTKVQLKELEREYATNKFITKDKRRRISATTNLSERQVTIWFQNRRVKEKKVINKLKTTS
- assay_protocol: inhibitors of HoxA13-DNA binding, primary screen, biochemical, fluorescence polarization, labeled oligonucleotide (AID 1185)
- run_conditions: 15 min, higher = more signal, called active from +8 up or from −8 down
Kindly state z-score for each of the entries shown.
Numbers only.

Some entries whose results are on file:
compound	recorded_result
COCCOC(=O)N1C(=O)[C@@]2(c3cc(C#CC4=CCCCC4)ccc31)[C@H](C(=O)N1CCN(c3ncccn3)CC1)[C@H]1C(=O)O[C@H](c3ccccc3)[C@H](c3ccccc3)N1[C@@H]2c1ccccc1OCCO	2.82
O=C1N(CCS(=O)(=O)c2ccccc2)c2ccccc2[C@@H]2OC(c3ccc(OCCCO)cc3)=N[C@]12CCS(=O)(=O)c1ccccc1	0.806
C=CCC(OC(C)=O)[C@@H]1[C@@H](N(Cc2cc3ccccc3o2)C(=O)Cc2ccc(OC)cc2)c2cc(OCCCO)ccc2N1C(=O)Cc1ccc2ccccc2c1 (some centres undefined)	-1.62

Pending compound:
Request: May I ask what z-score has been recorded for C=CCC(OC(C)=O)[C@@H]1[C@@H](N(Cc2cccc3ccccc23)C(=O)c2ccc(C)cc2)c2cc(OCCCO)ccc2N1C(=O)c1ccc2ccccc2n1 (some centres undefined) ?
Result: -0.702

----------
- System: Inhibin beta A chain (activin A)
- assay_protocol: INHBA (activin A) binders on microarrays, primary screen, biochemical, small-molecule microarray, 635 nm fluorescence scan (AID 1107);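 note: mouse activin A protein probed at 4.33 µg/mL on printed slides; score merges bound-protein fluorescence near 667 nm with spot signal-to-noise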
- run_conditions: small-molecule microarray binding, higher = more signal
Okay, here is how we bin by composite z-score: bin A = under 0.5, bin B = from 0.5 up to 0.9, bin C = 0.9 and over

Examples from the recorded data:
molecule	system	qualitative_label
C=CC[C@@]1(C(=O)N(C)C)N=C(c2ccc(OCCCO)cc2)O[C@@H]1c1ccccc1	Inhibin beta A chain (activin A)	bin C
O=C1OCCC=C[C@H]2OC34C=CCN(c5ccc(Cl)cc5)C(=O)[C@H]3N(CCO)C(=O)[C@@H]4C12 (stereo not given in full)	Inhibin beta A chain (activin A)	bin A
CCCCCCCCCCC(O)C1C=CC2C(=O)N(C)C(=O)C2N1N1CCCCC1 (stereo not given)	Inhibin beta A chain (activin A)	bin C
CC(C)N1CC=CC23O[C@@H]4C=CCCOC(=O)C4[C@H]2C(=O)N(CCCCCO)[C@@H]3C1=O (stereo not given in full)	Inhibin beta A chain (activin A)	bin B
Cc1ccc(F)cc1S(=O)(=O)N[C@@H]1CCN(Cc2ccc3[nH]ccc3c2)C1	Inhibin beta A chain (activin A)	bin B
C=CCC(OC(C)=O)[C@@H]1[C@@H](N(Cc2ccc(-c3cccc(C(F)(F)F)c3)o2)C(=O)Cc2ccc(F)cc2)c2cc(OCCCO)ccc2N1C(=O)c1ccc2ccccc2c1 (stereo not given in full)	Inhibin beta A chain (activin A)	bin C
COC(=O)[C@]1(CO)N=C(c2ccc(OCCCO)cc2)O[C@@H]1c1ccccc1CN=[N+]=[N-]	Inhibin beta A chain (activin A)	bin A
COC(=O)[C@@]1(Cc2ccccc2CN=[N+]=[N-])COC(c2ccc(OCCCO)cc2)=N1	Inhibin beta A chain (activin A)	bin A

Request: Category lookup for the molecule C=CCC(OC(C)=O)[C@@H]1[C@@H](N(Cc2cccc3ccccc23)C(=O)c2ccc(C)cc2)c2cc(OCCCO)ccc2N1C(=O)c1ccc2ccccc2n1 (stereo not given in full)
Result: bin B

Request: Category lookup for the molecule CC(C)CNC(=O)[C@@H]1c2ccccc2C(=O)N(C(C)C)[C@H]1c1ccc(CO)cc1
Result: bin B

----------
- system: Fibroblast growth factor 2 (Homo sapiens)
- assay_protocol: FGF2 binders on small-molecule microarrays, primary screen, biochemical, small-molecule microarray, 635/667 nm fluorescence (AID 1133)
- run_conditions: small-molecule microarray binding, FGF2, fluorescence 635/667; higher = more signal
Kindly state composite z-score for each of the entries shown.
One number for each entry.

compound	reported_property	recorded_result
CC[C@H](C)C(=O)O[C@H]1CC[C@]2(C)C3=C(CCC2C1(C)C)[C@]1(C)CC[C@H]([C@H](C)CCCC(C)C)[C@@]1(C)CC3 (stereo partly specified)	composite z-score	0.35
CC(C)C[C@H]1NC(=O)[C@@H](C)NC(=O)[C@@]23C(=O)N[C@@H](Cc4ccccc4)C2[C@H](C)[C@@]2(C)O[C@H]2C3/C=C/C/C=C\CNC1=O (stereo partly specified)	composite z-score	0.238
Cc1c(-c2ccc(-c3ccc(Cl)c(Cl)c3)o2)nc(-c2ccccc2)c2c1CO[Si]2(C(C)C)C(C)C	composite z-score	-0.255
Cc1ccc(S[C@]2(C(=O)NCCN3CCOCC3)CC(=O)N(C3CCCCC3)[C@@H]2c2ccc(CO)cc2I)cc1	composite z-score	0.236
CC(=O)NCCCC[C@@H]1NC(=O)[C@@H]2C[C@H](C(=O)NCCCCCC[N+](C)(C)C)[C@H](c3ccc(O)cc3)N2C1=O	composite z-score	1.56

Pending compound:
Request: Given the entry CC(C)C(=C=CC[C@@H](O)c1cccc(OCCO)c1)CCO , what composite z-score was observed with Fibroblast growth factor 2 (Homo sapiens)?
Result: 1.61

----------
- assay_protocol: PSAC antagonists in infected red cells, primary screen, cell-based, P. falciparum Indochina, OD700, 1 h (AID 1154)
- run_conditions: P. falciparum Indochina infected RBC osmotic lysis, called active from +8 up or from −8 down
The source made the active and inactive calls.
Write down the outcome that applies. Available outcomes: True for active, False for inactive

Request: Which outcome was entered for the compound CC=CC(O)C1C=CC2C(=O)N(C)C(=O)C2N1NC(=O)OC(C)(C)C (stereo unspecified) in this test?
Result: False

----------
- Test system: Lefty1
- assay_protocol: Lefty1 binders on small-molecule microarrays, primary screen, biochemical, small-molecule microarray, 635/667 nm fluorescence (AID 1139)
- run_conditions: small-molecule microarray binding, fluorescence 635/667; higher = more signal
Kindly state composite z-score for each of the entries shown.

Some entries whose results are on file:
molecule	reported_property	recorded_result
Cc1ccccc1C(O)C1C=CC2C(=O)N(c3ccccc3)C(=O)C2N1Nc1ccccc1F (stereo not drawn)	composite z-score	-0.245
COc1ccc(C#Cc2ccc3c(c2)[C@]2(C(=O)N3)[C@H](c3ccc(OCCO)cc3)N3[C@H](c4ccccc4)[C@H](c4ccccc4)OC(=O)[C@H]3[C@@H]2C(=O)O)cc1	composite z-score	1.63

Hello, I would appreciate it if you could give composite z-score for each entry below.
1. COCCOC(=O)N1C(=O)[C@@]2(c3cc(C#Cc4ccc(OC)cc4)ccc31)[C@H](C(=O)N1CCCCCCC1)[C@H]1C(=O)O[C@H](c3ccccc3)[C@H](c3ccccc3)N1[C@@H]2c1ccccc1OCCO
2. COc1ccc([Si](C)(C)[C@H]2[C@H](CCn3cc([C@H](O)c4ccccc4)nn3)O[C@@]3(C(=O)N(c4ccccc4)c4ccccc43)[C@@H]2C)cc1
3. C=CC[C@]1(C(=O)NCc2ccccc2)COC(c2ccc(OCCCO)cc2)=N1
4. C=C(CCCC)C(=O)CC[C@H](OC(=O)c1cccnc1)c1ccc(CO)o1

Result:
1: 1.62; 2: 1.51; 3: -0.95; 4: 1.65

Hello, I would appreciate it if you could give composite z-score for each entry below.
1. CCC[C@@H]1[C@@H](Sc2ccccc2)[C@@H](C(=O)O)[C@H](c2ccc(C)cc2)N1S(=O)(=O)c1ccc(C)cc1
2. CC1CC/C=C\[C@H]2OC34C=CCN(CCN5CCOCC5)C(=O)[C@H]3N(CCCCCCO)C(=O)[C@@H]4C2C(=O)O1 (stereo partly drawn)

Result:
1: 0.717; 2: -0.259

----------
- assay_protocol: small-molecule microarray binders of probe aXIP, primary screen, biochemical, NeuroSMM set, 635/667 nm fluorescence (AID 1119);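 note: probe is the protein aXip251-270 applied at 1 µg/mL to compound-printed slides; binding of probe to printed compounds measured as 667 nm fluorescence plus signal to noise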
- run_conditions: higher = more signal, called active from +8 up or from −8 down
Okay, here is how we bin by composite Z-score: A (below 0.3), B (0.3 to below 0.6), C (0.6 or more)

molecule	qualitative_label
CC(C)CNC(=O)[C@@H]1c2ccccc2C(=O)N(CC23CC4CC(CC(C4)C2)C3)[C@H]1c1ccc(CO)cc1	C
CCCCCCc1nc(-c2ccc(OC)nc2)cc2c1[Si](C(C)C)(C(C)C)OC2	B
C=C(COC)/C(=C/C[C@@H](OC(C)=O)c1ccccc1OCCO)c1cc(C(=O)OC)ccc1OC	C
COc1ccc([Si](C)(C)[C@@H]2[C@@H](CC(=O)N(CCO)Cc3ccccc3)O[C@]3(C(=O)N(Cc4ccc(N5CCC5=O)cc4)c4ccccc43)[C@H]2C)cc1	A

Request: Category lookup for the molecule C[N+](C)(C)CCCCCCNC(=O)[C@H]1C[C@H]2C(=O)NCC(=O)N2[C@H]1c1cccc(OCCO)c1
Result: B

Request: Category lookup for the molecule O=C1C2C=CC(C(O)c3cccs3)N(Nc3ccccc3)C2C(=O)N1c1ccccc1 (stereo not drawn)
Result: B

Request: Category lookup for the molecule CCOC(=O)C1=CCC(c2cc3ccccc3[nH]2)N(S(=O)(=O)c2ccccc2[N+](=O)[O-])C1 (stereo not drawn)
Result: C

Request: Category lookup for the molecule CO[C@H]1O[C@H](CO)[C@@H](OC(=O)Nc2ccccc2)[C@@H]2OC(=O)[C@H](Cc3ccccc3)C/C=C/C[C@@H](Cc3ccccc3)C(=O)O[C@@H]12
Result: C

Request: Category lookup for the molecule COCCOC(=O)N1C(=O)[C@@]2(c3cc(C#CC4(O)CCCCCC4)ccc31)[C@H](c1ccc(OCCO)cc1)N1[C@H](c3ccccc3)[C@H](c3ccccc3)OC(=O)[C@H]1[C@@H]2C(=O)N1CCCCCCC1
Result: C

Request: Category lookup for the molecule CC(=O)NCCCC[C@@H]1NC(=O)[C@@H]2C[C@H](C(=O)NCCCCCC[N+](C)(C)C)[C@H](c3ccc(O)cc3)N2C1=O
Result: A
